Data credit: PubChem BioAssay (NCI)

Tested on: SF-539 CNS
Experiment: NCI tumour cell line growth inhibition, 48 h
TGI values for the compounds below.
Value type: TGI (µM)

Compound	Comparison operator	Data value
CCCCCCCCO/N=C\c1c2c(O)c3c(O)c(C)c4c(c3c1O)C(=O)C(C)(O/C=C\C(OC)C(C)C(OC(C)=O)C(C)C(O)C(C)C(O)C(C)/C=C\C=C(\C)C(=O)N2)O4 (configuration not stated)	=	9.75
C/C(=C\c1csc(C)n1)[C@@H]1C[C@@H]2O[C@]2(C)CCC[C@H](C)[C@H](O)[C@@H](C)C(=O)C(C)(C)[C@@H](O)CC(=O)O1 (tested in a mixture with another compound)	=	0.0348
BrC12C3C4C5C(C(C43)C13OCCO3)C52 (configuration not stated)	>	100
CCC[CH2][Sn]([CH2]CCC)([O]C(=O)c1cccc(F)c1F)[O][Sn]([CH2]CCC)([CH2]CCC)[O]C(=O)c1cccc(F)c1F	=	0.722
CCOC(=O)C(NC(=O)NCc1ccc(F)cc1)C(F)(F)F (configuration not stated)	>	100
COc1cc(/C=C/C(=O)CC(=O)/C=C/c2ccc(OC(=O)CCNC34CC5CC(CC(C5)C3)C4)c(OC)c2)ccc1OC(=O)CCNC12CC3CC(CC(C3)C1)C2	=	4.81
Cn1c(=S)[nH]c2c(Cl)cc(Cl)cc2c1=O	>	100
COc1ccc2c(c1)CC1NC2Cc2ccccc21 (configuration not stated)	>	100
COC(=O)CC1CN(C(=O)OCc2ccccc2)C(C)(C)O1 (configuration not stated)	>	100
Cc1cc(Nc2nc(N3CCOCC3)nc3ccccc23)n[nH]1	=	16.6
CCC[C@H](Nc1nc(-c2ccc(NC(=O)NCC)c(OC)c2)ncc1C)c1cccnc1	=	3.87
Cc1nn(-c2ccccc2)c2nc3c(c(C)nn3-c3ccccc3)c(-c3ccccc3Br)c12	>	100
C1=Cc2nc1c(-c1ccccc1)c1ccc([n-]1)c(-c1ccccc1)c1nc(c(-c3ccccc3)c3ccc([n-]3)c2-c2ccccc2)C=C1.[Zn+2]	>	100
O=C1C=CC(=O)N1c1ccc2c(c1)Cc1cc(NC(=O)C(F)(F)F)ccc1-2	=	32.8
N#Cc1c(N)nc(N2CCOCC2)c(C#N)c1-c1cccc(O)c1	>	100
COC1(OC)C[C@H](C)[C@@]23O[C@]24c2cc(O)c5c(c2N[C@H]3C#C/C=C\C#C[C@]14O)C(=O)c1ccccc1C5=O	=	0.00304
Cc1cc2c(cc1C)[n+](=O)c(C(=O)c1cccs1)c(C(F)(F)F)n2[O-]	=	7.69

* * *

Below is a list of entries, each paired with its recorded TGI value.
System: SNB-78 CNS
Assay: NCI tumour cell line growth inhibition, 48 h
Value type: TGI

> print(dat)
                                   molecule  target.system  value.type  data.value
1  COc1ccc2c(c1)CC1NC2Cc2ccccc21 (stereo unspecified)     SNB-78 CNS         TGI    > 100 µM
2  NC1=NN(c2ccccc2)C(=O)C1C(=O)C(=O)Nc1cccc(C(F)(F)F)c1 (stereo unspecified)     SNB-78 CNS         TGI    > 100 µM
3  CCCCC1(OC(=O)CCC(=O)O)CCC2(CCC(C)C(C/C=C(C)/C=C/C(O)C(C)/C=C/C(=O)O)O2)OC1CC/C(C)=C/C(=O)O (stereo unspecified)     SNB-78 CNS         TGI     7.75 µM
4  C1=Cc2nc1c(-c1ccccc1)c1ccc([n-]1)c(-c1ccccc1)c1nc(c(-c3ccccc3)c3ccc([n-]3)c2-c2ccccc2)C=C1.[Zn+2]     SNB-78 CNS         TGI    > 100 µM
5  c1ccc2c(NCCCCCCCCNc3cccc4ccccc34)cccc2c1     SNB-78 CNS         TGI    > 100 µM
6             CO/C=C/c1cc2c(cc1C(OC)OC)OCO2     SNB-78 CNS         TGI    > 100 µM
